Below: a set of entries, each annotated with reported self-cleavage.
B1: Hairpin Ribozyme (parent)
chain: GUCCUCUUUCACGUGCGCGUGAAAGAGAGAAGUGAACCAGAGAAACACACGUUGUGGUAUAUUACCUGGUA

variants of: B1; experiment: self-cleavage, relative activity (ratio to wild type); higher = more cleavage; co-transcriptional
Lab note: write the figure by itself, no unit.

>>> recorded_result("C10U C38U")
0.387
>>> recorded_result("C4G U33C")
0.0651
>>> recorded_result("C18G A22C")
0.79
>>> recorded_result("C4U A49C")
0.259
>>> recorded_result("U9G G40U")
0.086
>>> recorded_result("A61C U70C")
0.169

GET /values?readout=self-cleavage&item= C10U A44C
0.135

Repeat with G19C A64G
0.545

Repeat with C6U A31U
0.101

Repeat with G21A C65U
0.147

Repeat with C4A A23C
0.222

Repeat with C16G U58A
0.488

Repeat with A59C A61U
0.284
